quantity: melting point

compoundStructure	melting point
O=c1ccc(S(=O)(=O)c2cccc(Br)c2)n[nH]1	> 220 °C
Cc1cc(Cl)cc(S(=O)(=O)c2ccc(=O)[nH]n2)c1	> 250 °C
O=c1ccc(S(=O)(=O)c2ccc(Cl)c(Cl)c2)n[nH]1	166 to 168 °C

Exam item: Could you please provide reported melting point for "O=c1ccc(S(=O)(=O)c2c(F)cc(F)cc2Cl)n[nH]1" ? Thanks!
Marked response: > 250 °C
